Tested on: 883617-216-R-J1-PDC complex spheroids, growth, % test/control;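 also: exposure lasted 7 days after dosing on day 3 of spheroid growth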
Test: Anticancer human tumor 883617-216-R-J1-PDC patient-derived bladder carcinoma cell line growth inhibition [AhR]
Conditions: curve of first compound; second compound 0.1 µM
Source text: Multicellular complex tumor spheroid response to aryl hydrocarbon receptor antagonists in combination with a variety of drugs and investigational agents in selected tumor cell lines […] Compounds. […] If the clinical Cmax for an agent had not been determined, the highest concentration tested was 10 microM (Table 1). […]
Measured quantity: log10 IC50 (log10 of the value in nM)
Units before log transform: nM; reported quantity: IC50; transform: log10.

Before answering, review these 4 worked examples.
INSERT INTO results (molecule, value) VALUES
  ('Nc1ccccc1NC(=O)c1ccc(CNC(=O)OCc2cccnc2)cc1 + CC(CO)NC(=O)c1cc(-c2ccc(Cl)cc2)nn(-c2cnn(C)c2)c1=O', 3.47),
  ('CCc1c2c(nc3ccc(O)cc13)-c1cc3c(c(=O)n1C2)COC(=O)[C@]3(O)CC + Cc1ccccc1N=Nc1ccc(NC(=O)c2ccnn2C)c(C)c1', 2.27),
  ('CC(C)CC(NC(=O)C(Cc1ccccc1)NC(=O)c1cnccn1)B(O)O (centres undefined) + Cc1ccccc1N=Nc1ccc(NC(=O)c2ccnn2C)c(C)c1', 0.87),
  ('O=C(C=Cc1cccc(S(=O)(=O)Nc2ccccc2)c1)NO + CC(CO)NC(=O)c1cc(-c2ccc(Cl)cc2)nn(-c2cnn(C)c2)c1=O', 3.55);

Read the next record carefully.
Form: molecule = CC(C)CC(NC(=O)C(Cc1ccccc1)NC(=O)c1cnccn1)B(O)O (centres undefined) + CC(CO)NC(=O)c1cc(-c2ccc(Cl)cc2)nn(-c2cnn(C)c2)c1=O ; log10 IC50 = 0.27
